# System: Wolbachia pipientis
# procedure-text: Anti-Wolbachia Cell-Based Screen
# Assay type: functional
# Design: scale not given: in the data most compounds retested in dose-response had high values
# experimental-conditions: 5 µM
Among all 48,000 compounds or so, about 13,000 (27%) showed an effect of 50% or more. Some of the results follow.
Readings of Percent Effect for the listed molecules
readout-kind: Percent Effect (%)

1) O=C1OC2(CCN(C3CCCOC3)CC2)CN1CCc1ccccc1 (stereo unspecified)    0.1893
2) CN1CCN(C(=O)CC2CCN(CCc3ccccn3)CC2)CC1    -2.122
3) COCCC(=O)N(Cc1ccccn1)Cc1ccccc1C    13.85
4) O=C(O)C(F)(F)F.c1ccc(OC2COC3(CCN(Cc4ccccn4)CC3)C2)cc1 (stereo unspecified)    -3.872
5) O=C(c1cccc(CO)n1)N1CCOC(c2ccc(Cl)c(Cl)c2)C1 (stereo unspecified)    -12.21
6) c1ccc(CCN2CCN(C3CCOC4(CCOCC4)C3)CC2)nc1 (stereo unspecified)    69.95
7) c1ccc(CN2CCN(C3CCOC4(CCOCC4)C3)CC2)nc1 (stereo unspecified)    115.7
8) CCN1CC(C(=O)N(C)Cc2ccon2)CC1=O (stereo unspecified)    8.13
9) CCC(C)(NCc1ncc(C(C)C)o1)c1nccs1 (stereo unspecified)    -9.094
10) Cc1ccc2c(n1)N(CCn1cccn1)CCN(CC1CC1)C2.O=C(O)C(F)(F)F.O=C(O)C(F)(F)F    102.9
11) O=C(CNC(=O)c1c[nH]c2ccccc12)NCCCn1ccnc1    13.72
